- target.or.test.system: T1, Human latent myostatin (human, UniProt O14793 25-266; O14793 267-375)
- T1 construct: Biotinylated in the ELISAs; also called human myostatin latent form
- T1 sequence 1: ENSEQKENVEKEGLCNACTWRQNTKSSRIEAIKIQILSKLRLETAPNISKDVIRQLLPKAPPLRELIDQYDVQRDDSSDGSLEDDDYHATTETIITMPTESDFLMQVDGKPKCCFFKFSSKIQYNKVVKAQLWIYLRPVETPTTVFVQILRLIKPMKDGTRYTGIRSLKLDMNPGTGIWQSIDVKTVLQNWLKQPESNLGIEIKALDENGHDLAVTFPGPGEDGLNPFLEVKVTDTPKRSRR
- T1 sequence 2: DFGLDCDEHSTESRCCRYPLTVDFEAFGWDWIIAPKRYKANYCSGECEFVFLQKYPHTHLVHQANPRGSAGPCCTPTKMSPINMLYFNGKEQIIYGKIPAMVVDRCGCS
- protocol.notes: SPR (BIACORE T200), 37 C, pH7.4, avidity condition (capture 185 RU), 1:1 fit; pH 7.4
measurement.name: kon (M⁻¹ s⁻¹)
Respond with the bare value in M⁻¹ s⁻¹.

# example entries with known answers
[[record]]
binder = "MS_M103205H781-SG1/M103202L719-SK1 (antibody, human IgG1, kappa, V domains shown, also called MS1032LO02-SG1; MSLO-02) VH: QVTLKESGPVLVKPTETLTLTCTVSGIDLSHTDISWVRQAPGKGLEWVGIISYAGSTYYMSWAKGRLTISKDTSKNQVVLTMTNMDPVDTATYYCARGVPAYSHGGDLWGQGTLVTVSS VL: DIVMTQSPATLSLSPGERATLSCQSSQSVYHNNWLSWFQQKPGQPPKLLIYWASTLAFGVPSRFSGSGSGTDFTLTISSLQPEDAATYYCAGGYGGGLYAFGQGTKVEIKR"
endpoint_value = 836000

[[record]]
binder = "MS_M103205H714-SG1/M103202L861-SK1 (antibody, human IgG1, kappa, V domains shown, also called MS1032LO01-SG1; MSLO-01) VH: QVTLKESGPVLVKPTETLTLTCTVSGIDLSHTDISWVRQAPGKGLEWVGIISYAGSTYYASWAKGRLTISKDTSKNQVVLTMTNMDPVDTATYYCARGVPAYSHGGDLWGQGTLVTVSS VL: DIVMTQSPATLSLSPGERATLSCTSSQSVYHNNWLSWFQQKPGQPPKLLIYWASTLAYGVPSRFSGSGSGTDFTLTISSLQPEDAATYYCAGGYGGGRYAFGQGTKVEIKR"
endpoint_value = "1.27e+06"


Now take the following binder into account.
Quick note, kon for MS_M103205H707-SG1/M103202L802-SK1 (antibody, human IgG1, kappa, V domains shown, also called MS1032LO04-SG1; MSLO-04) VH: QVTLKESGPVLVKPTETLTLTCTVSGIDLSHYDISWVRQAPGKGLEWVGIISYAGSTYYASWAKGRLTISKDTSKNQVVLTMTNMDPVDTATYYCARGVPAYSHGGDLWGQGTLVTVSS VL: DIVMTQSPATLSLSPGERATLSCTSSQSVYHDNWLSWFQQKPGQPPKLLIYWASTLAYGVPSRFSGSGSGTDFTLTISSLQPEDAATYYCAGGYGGGLYAFGQGTKVEIKR landed at 1.33e+06
